# Tested on: ACHN renal
# test.protocol: NCI-60 one-dose screen, 48 h
# condition.info: 10 µM unless noted
# Experimental: Growth inhibition of the ACHN human tumor cell line is measured as a screen for anti-cancer activity. Cells are grown in 96 well plates and exposed to the test compound for 48 hours. Compounds are tested at a single concentration, which is 10^-5 M for most compounds. The reported endpoint is percent growth (GI% or GIPRCNT), where numbers from 0 - 100% represent growth inhibition, and numbers from -100% - 0 represent cell death. For example, a value of 40 represents 60% growth inhibition. […]
Compounds without any hit were thinned out: in the full panel of roughly 83,000, 20% have a hit. Activity calls are given as the source filed them. How the source made its calls: active means growth percent below 10; inactive means the rest.
Classes used: active, inactive

[
  {
    "compound": "CC(=O)O[C@H]1CC[C@@]2(C)C(=CC[C@H]3[C@@H]4C[C@@H](N5CC5)[C@H](C(C)=O)[C@@]4(C)CC[C@@H]32)C1",
    "discrete.label": "inactive"
  },
  {
    "compound": "O=C1C=C(N2C3C4CCC(C4)C32)C(=O)C=C1c1ccccc1 (stereo unspecified)",
    "discrete.label": "inactive"
  },
  {
    "compound": "N#C[S-].[Au+].c1ccc(CN2[CH-]N(Cc3ccccc3)C(c3ccccc3)=C2c2ccccc2)cc1",
    "discrete.label": "active"
  },
  {
    "compound": "O=C1NC(=O)C(=Cc2cccn2CCCCCn2c3ccccc3c(=O)c3ccccc32)C(=O)N1",
    "discrete.label": "inactive"
  },
  {
    "compound": "O=[N+]([O-])CC(O)C(Cl)(Cl)Cl (stereo unspecified)",
    "discrete.label": "inactive"
  },
  {
    "compound": "Cc1ccc(C(=O)NCCCOc2ccc(N3C(N)=NC(N)=NC3(C)C)cc2Cl)cc1S(=O)(=O)F",
    "discrete.label": "inactive"
  }
]
